Reported pIC50 values for a set of compounds
assay-target: Bifunctional dihydrofolate reductase-thymidylate synthase (Toxoplasma gondii)
Convention used: pIC50 is expressed as -log10 of the molar concentration.

COc1ccc(OC)c(CNc2cnc3nc(N)nc(N)c3c2)c1	6.30
COc1cc(CN(C)c2cnc3nc(N)nc(N)c3c2)cc(OC)c1	7.54
COc1cc(CNc2cnc3nc(N)nc(N)c3c2)cc(OC)c1OC	5.89
CN(Cc1ccccc1)c1cnc2nc(N)nc(N)c2c1	7.46

Now look at this entry.
pIC50 reported for this compound COc1ccc(CN(C)c2cnc3nc(N)nc(N)c3c2)c(OC)c1OC : 7.59

---

Reported IC50 values for a set of compounds
assay-target: Dihydrofolate reductase (Lactobacillus casei)
Sequence (P00381 whole entry): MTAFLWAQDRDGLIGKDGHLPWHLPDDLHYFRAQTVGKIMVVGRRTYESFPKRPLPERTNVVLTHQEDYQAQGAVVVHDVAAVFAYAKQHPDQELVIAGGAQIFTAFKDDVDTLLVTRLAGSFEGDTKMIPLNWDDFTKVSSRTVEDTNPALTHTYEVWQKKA
assay: Inhibitory activity against recombinant lc dihydrofolate reductase(in 50 uM dihydrofolic acid)
# value in nM; strip the unit string

COc1ccc(OC)c(CN(C)c2cnc3nc(N)nc(N)c3c2)c1	5700

Now look at this entry.
IC50 reported for this compound CN(Cc1ccc(C(=O)NC(=O)[C@H](N)CCC(=O)O)cc1)c1cnc2nc(N)nc(N)c2c1 : 170

---

assay-target: Dihydrofolate reductase (Rattus norvegicus, UniProt Q920D2)
Sequence (Q920D2 whole entry): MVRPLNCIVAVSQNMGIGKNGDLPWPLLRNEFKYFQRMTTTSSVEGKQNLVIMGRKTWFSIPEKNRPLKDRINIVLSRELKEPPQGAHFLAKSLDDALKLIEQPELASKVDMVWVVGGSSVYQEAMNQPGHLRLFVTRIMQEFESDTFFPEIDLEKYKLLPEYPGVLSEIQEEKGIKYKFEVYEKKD
Assign labels as follows, please: Y for IC50 below 300 nM; N for IC50 equal to or exceeding 300 nM.

Example cases with answers are listed next.
Nc1nc(N)c2cc(NCc3cccc4ccccc34)cnc2n1	Y
COc1ccc(CNc2cnc3nc(N)nc(N)c3c2)cc1OC	N
COc1ccc(CN(C)c2cnc3nc(N)nc(N)c3c2)c(OC)c1OC	Y
Nc1nc(N)c2cc(NCCc3ccccc3)cnc2n1	Y

Does this molecule meet the criterion IC50 < 300 nM? COc1ccc(CNc2cnc3nc(N)nc(N)c3c2)c2ccccc12
N

Does this molecule meet the criterion IC50 < 300 nM? CCOc1cc(Cc2cnc(N)nc2N)cc(OCC)c1-n1cccc1 [EPIROPRIM]
N

---

assay-target: Dihydrofolate reductase (Homo sapiens)
Sequence (P00374 whole entry): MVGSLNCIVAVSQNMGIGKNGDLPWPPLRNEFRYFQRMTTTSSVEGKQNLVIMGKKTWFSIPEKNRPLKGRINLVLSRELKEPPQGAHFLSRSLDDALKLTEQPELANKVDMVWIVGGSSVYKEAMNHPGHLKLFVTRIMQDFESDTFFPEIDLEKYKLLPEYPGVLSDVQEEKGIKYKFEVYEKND
assay: Inhibitory activity against recombinant human dihydrofolate reductase(in 50 uM dihydrofolic acid)
Assign labels as follows, please: t for IC50 below 3000 nM; f for IC50 equal to or exceeding 3000 nM.

Example cases with answers are listed next.
COc1ccc(OC)c(CN(C)c2cnc3nc(N)nc(N)c3c2)c1	f
Nc1nc(N)c2cc(NCc3ccccc3)cnc2n1	f
COc1ccc(CN(C)c2cnc3nc(N)nc(N)c3c2)c(OC)c1OC	t
COc1cc(CN(C)c2cnc3nc(N)nc(N)c3c2)cc(OC)c1	t
CN(Cc1ccc(C(=O)NC(=O)[C@H](N)CCC(=O)O)cc1)c1cnc2nc(N)nc(N)c2c1	t

Okay, next one:
Does this compound meet the criterion IC50 < 3000 nM? CN(Cc1ccccc1)c1cnc2nc(N)nc(N)c2c1
t

---

assay-target: Bifunctional dihydrofolate reductase-thymidylate synthase (Toxoplasma gondii, UniProt Q07422)
Sequence (Q07422 whole entry): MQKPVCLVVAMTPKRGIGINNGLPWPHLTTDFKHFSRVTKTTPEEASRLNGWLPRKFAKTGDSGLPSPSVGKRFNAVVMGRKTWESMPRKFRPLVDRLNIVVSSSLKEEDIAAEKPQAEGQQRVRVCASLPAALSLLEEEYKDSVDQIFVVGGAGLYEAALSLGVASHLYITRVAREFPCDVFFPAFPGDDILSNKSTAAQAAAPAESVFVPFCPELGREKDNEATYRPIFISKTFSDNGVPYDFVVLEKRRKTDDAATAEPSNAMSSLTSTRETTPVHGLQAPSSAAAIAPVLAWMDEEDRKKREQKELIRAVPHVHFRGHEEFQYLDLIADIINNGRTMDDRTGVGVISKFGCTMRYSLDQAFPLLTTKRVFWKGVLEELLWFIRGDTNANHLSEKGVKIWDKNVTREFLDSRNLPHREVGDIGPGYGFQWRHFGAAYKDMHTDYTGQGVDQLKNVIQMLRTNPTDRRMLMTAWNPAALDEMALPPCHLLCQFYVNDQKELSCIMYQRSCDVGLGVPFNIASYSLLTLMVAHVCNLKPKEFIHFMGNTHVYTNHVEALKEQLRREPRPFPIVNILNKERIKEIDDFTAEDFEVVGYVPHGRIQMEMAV
parameter: IC50 (nM)
# value in nM; strip the unit string

Known IC50 results, listed for orientation:
COc1ccc(CNc2cnc3nc(N)nc(N)c3c2)c(OC)c1OC	670
CN(Cc1ccccc1)c1cnc2nc(N)nc(N)c2c1	32

Now look at this entry.
IC50 reported for this molecule CCOc1cc(Cc2cnc(N)nc2N)cc(OCC)c1-n1cccc1 [EPIROPRIM] : 470
